B1: ZNF263 (parent)
chain: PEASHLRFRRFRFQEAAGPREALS

- Variants of: B1
- Experiment notes: protein stability index of a GFP-peptide fusion (GPS, HEK-293T) (PSI 1-6); higher = more stable;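 note: lentivirally expressed fusions sorted by FACS into six bins by GFP to DsRed ratio, PSI derived from sequencing read proportions per bin multiplied by bin number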
- Particulars: c terminus: a fixed tail appended
Lab note: anything with protein stability index at or over 3 counts as class 1; the rest go in class 0.

Exercise: Hi team, for `A17L` , is the recorded protein stability index at or above 3?
Solution: class 0

Exercise: Hi team, for `R7G` , is the recorded protein stability index at or above 3?
Solution: class 1

Exercise: Hi team, for `P19N` , is the recorded protein stability index at or above 3?
Solution: class 0

Exercise: Hi team, for `R9H` , is the recorded protein stability index at or above 3?
Solution: class 0

Exercise: Hi team, for `E21S` , is the recorded protein stability index at or above 3?
Solution: class 0

Exercise: Hi team, for `H5T` , is the recorded protein stability index at or above 3?
Solution: class 0

Exercise: Hi team, for `P19C` , is the recorded protein stability index at or above 3?
Solution: class 0

Exercise: Hi team, for `G18F` , is the recorded protein stability index at or above 3?
Solution: class 0

Exercise: Hi team, for `F13N` , is the recorded protein stability index at or above 3?
Solution: class 1

Exercise: Hi team, for `R9D` , is the recorded protein stability index at or above 3?
Solution: class 0

Exercise: Hi team, for `R20W` , is the recorded protein stability index at or above 3?
Solution: class 0

FYI, the data here is from the supplement of paper PMC10567573.
